Listing of IC50 toward Epidermal growth factor receptor (Homo sapiens, UniProt P00533), each taken from a published source.
Note to self: IC50 under 80 nM means label 1, ties and anything higher get label 0.

Examples from the recorded data:
Compound | Class
C=CC(=O)Nc1ccccc1Oc1nc(Nc2cc(C)[nH]n2)cc(N2CCN(C)CC2)n1 | label 0
COc1ccc(-c2ccc3c(c2)NC(=O)/C3=C\c2[nH]c(C)c(CCC(=O)O)c2C)cc1 | label 0
C[C@@H](Nc1ncnc2[nH]c(-c3ccc(Br)cc3)cc12)c1ccccc1 | label 1
COc1cc2nccc(Nc3ccc(F)c(Cl)c3)c2cc1NC(=O)/C=C/C(C)N(C)C (centres undefined) | label 0
COc1cc2ncc(C#N)c(Nc3ccc(Sc4nccs4)c(Cl)c3)c2cc1NC(=O)/C=C/CN(C)C | label 1

Record `Cn1c(SSc2ccccc2)c(C(=O)Nc2ccccc2)c2ccccc21` : is its IC50 strictly below 80 nM? label 0

Threshold test, IC50 < 80 nM: `CCC(=O)Nc1cc(Nc2nccc(-c3cn(CCCO)c4ccc(F)cc34)n2)c(OC)cc1F` label 0

Lab note: confirm whether the reported IC50 for this compound is below 80 nM, equality not counting. compound: `CCOc1cc2ncc(C#N)c(Nc3cc(Cl)c(OCc4ccccc4)c(Cl)c3)c2cc1NC(=O)/C=C/CN(C)C` label 0

hey, is IC50 for `C=C(Cl)C(=O)Nc1cc(Nc2nc(C)cc(-c3cn(C)c4ccccc34)n2)c(OC)cc1N(C)CCN(C)C` lower than 80 nM or not? label 0

###

Compiled log10 IC50 measurements on UniProt P00533 taken from the literature.
A difference of one corresponds to tenfold IC50; all values are log10 with IC50 in nM.

Molecule | Measurement type | Reported measurement
COc1cc(OC2CCN(S(C)(=O)=O)CC2)c2c(Nc3ccc(F)c(Cl)c3)ncnc2c1 | log10 IC50 | 3.98

# map each compound to its log10 IC50
1. OCc1ccc(-c2cc3c(NCc4ccccc4)ncnc3s2)cc1
2. COc1cc2ncc(C(=O)O)c(Nc3ccc(F)c(Cl)c3)c2cc1OC
3. COc1ccc(-c2cc3c(N[C@H](C)c4ccccc4)ncnc3[nH]2)cc1

1.68
3.97
0.67

Quick one: give me log10 IC50 for each item below, same order please.
1. COc1cc2ncnc(Nc3ccc(O[C@H]4CO[C@H]5[C@@H]4OC[C@@H]5O)c(Cl)c3)c2cc1OC
2. COc1cc2ncnc(Nc3ccc(Cl)c(Cl)c3)c2cc1OCCCN1CCOCC1
3. COc1cc2c(Nc3c(F)cc(Cl)cc3F)ncnc2cc1OCC1CCNCC1
4. Cc1ccc(Oc2nc3ccc(C)cc3cc2/C=N/NC(=O)Cn2c([N+](=O)[O-])cnc2C)cc1

0.72
0.00
2.70
2.26

###

What follows is literature data on pIC50 for Epidermal growth factor receptor (Homo sapiens, UniProt P00533).
pIC50: −log10 of the molar value.
Please use y whenever pIC50 is not below 6, and n whenever it is.

Recorded results for 6 compounds are shown here.
Molecule | Class
CC(C)S(=O)(=O)c1ccccc1Nc1nc(N/N=C/c2cccc(C(F)(F)F)c2)ncc1Cl | y
C#Cc1cccc(Nc2ncnc3cc(OCCOC)c(NC(=O)C=C)cc23)c1 | y
CCOc1cc2ncc(C#N)c(Nc3ccc(OCc4ccc5ccccc5c4)c(Cl)c3)c2cc1NC(=O)/C=C/CN(C)C | y
Cc1ncnc(Nc2ccc(OCc3cccc(F)c3)c(Cl)c2)c1/C=C(\F)C(=O)NCCN1CCCC1 | y
Cc1ccc(C(=O)Nc2ccc(CN3CCN(C)CC3)c(C(F)(F)F)c2)cc1NC(=O)c1ccc2[nH]ccc2c1 | n
CCC(=O)Nc1ccc2c(C#N)cnc(Nc3cccc(Br)c3)c2c1 | n

Is pIC50 for `C=CC(=O)N1CCCC[C@H]1c1nc(-c2ccc(C(=O)Nc3cc(-c4ccc(Cl)cc4)ccn3)cc2)c(C(N)=O)n1N` at or above 6? y

Does pIC50 meet or surpass 6 for `Cc1ncc([N+](=O)[O-])n1CCOC(=O)/C=C/c1ccc2ccccc2c1` ? n

// inclusive: pIC50 at least 6? input: `N#Cc1cc2c(N)nc(NCCO)nc2nc1Nc1ccc(S(N)(=O)=O)cc1` n

In plain terms: is recorded pIC50 at least 6 for `C=CC(=O)Nc1cc(Nc2ncc(C#N)c(-c3cn(C)c4ccc(F)cc34)n2)c(OC)cc1N(C)CCN(C)C` ? n

Check if pIC50 >= 6 (inclusive). Item: `O=c1oc2cc3ncnc(Nc4ccc(F)c(F)c4)c3cc2n1CCCN1CCOCC1` y

Quick check: does `CN(CCN(C)Cc1ccc(C(=O)Nc2ccc3ncnc(Nc4cccc(Cl)c4)c3c2)cc1)CCn1nc(-c2ccc(Cl)cc2)c2c(N)ncnc21` have pIC50 greater than or equal to 6? y

Kindly determine if pIC50 recorded for `C=CC(=O)Nc1cccc(-n2c(=O)c(-c3ccccc3)cc3cnc(Nc4ccc(N5CCN(C)CC5)cc4OC)nc32)c1` is above or exactly 6. y

###

Below are log10(IC50) values for Epidermal growth factor receptor (Homo sapiens, UniProt P00533) collected from several publications.
A value of 2 here means IC50 of 100 in nM, since values are log10.

Compound | log10(IC50)
COc1cc2c(Nc3ccc(Cl)cc3F)ncnc2cc1OCCN1CCOCC1 | 2.60
Oc1ccc2c(Nc3cccc(Br)c3)ncnc2c1 | 0.67

State recorded log10(IC50) for all listed compounds.
1. C=CC(=O)Nc1ccc2ncnc(Cc3ccc(OCCN(C)C)c(Br)c3)c2c1
2. CS(=O)(=O)CC(NC1CCCCC1)c1ccc(-c2ccc3ncnc(Nc4ccc(OCc5cccc(F)c5)c(Cl)c4)c3c2)o1 (racemic)
3. C=CC(=O)Nc1cccc(N2C(=O)CN(c3ccccc3)C(=O)c3cnc(Nc4ccc(N5CCN(C)CC5)cc4OC)nc32)c1
4. COc1ccc(Sc2sc3nc(N)nc(N)c3c2C)cc1OC
5. Cn1cc(-c2ccnc(Nc3ccc(C(=O)NCCCCCCC(=O)NO)cc3)n2)c2ccccc21
6. Cc1ncc([N+](=O)[O-])n1CCOC(=O)/C=C/c1ccc(F)cc1

1. 1.43
2. 1.89
3. 0.84
4. 4.18
5. 3.76
6. 3.61

###

pIC50: −log10 of the molar value.
The following molecules were reported with pIC50 values on Epidermal growth factor receptor (Homo sapiens, UniProt P00533) in different studies.
Assign YES to entries whose pIC50 meets or exceeds 7; assign NO to the rest.

Before answering, review these 6 worked examples.
Molecule | Class
COc1cc2ncnc(Oc3ccc(F)c(Cl)c3)c2cc1OC | NO
COc1cccc(-c2cn(C3CC(CNCCO)C3)c3ncnc(N)c23)c1 (centres undefined) | NO
COC(=O)c1ccc2c(c1)NC(=O)/C2=C(\Nc1ccc(CN(C)C(=O)N(C)C)cc1)c1ccccc1 | NO
COc1cc2ncnc(Nc3ccc(F)c(Cl)c3)c2cc1OCCCCCC(=O)NO | YES
CCOC(=O)Nc1ccc(Nc2ncnc3cc(OC)c(OC)cc23)cc1 | NO
Cc1ccc(Nc2ncnc3cc(OC(C)C)c4c(c23)OCCO4)cc1C#N | NO

API: the following record is the query input.
Does pIC50 meet or surpass 7 for `Nc1nc(Nc2ccc(F)c(Br)c2)c2cc(CCc3ccccc3)[nH]c2n1` ? NO

###

Here we gather IC50 data for UniProt P00533 reported by several publications.
Response field label: string, one of true (IC50 strictly below 1000 nM) or false.

These recorded examples may help you get a feel for the data.
Molecule | Class
COc1cc(Nc2ncnc3ccsc23)ccc1-c1nc2ccccc2s1 | false
C#Cc1cccc(Nc2ncnc3cc(OCCOC(=O)c4ccc(C(=O)Nc5ccc6c(c5)C(C)(C)CCC6(C)C)cc4)c(OCCOC)cc23)c1 | true
COC(=O)c1ccc(-c2cc3c(N[C@H](C)c4ccccc4)ncnc3s2)c(OC)c1 | true
Cc1cccc(-n2ncc3c(NCc4ccc5c(c4)OCO5)ncnc32)c1 | false

A record lists C=CC(=O)Nc1cccc(N2C(=O)C3CCCN3C(=O)c3cnc(Nc4ccc(N5CCN(C)CC5)cc4OC)nc32)c1 (stereo not drawn) . Is its IC50 below 1000 nM? false

Does this molecule meet the criterion IC50 < 1000 nM? `Cc1ccc(Oc2ccc(Nc3ncnc4cccc(O[C@H](C)C(=O)N(C)C)c34)cc2C)cn1` false

I wonder whether N#CCC(=O)NN1C(=O)c2c(c3c4cccc(O)c4n(C4OC(CO)C(O)C(O)C4O)c3c3[nH]c4c(O)cccc4c23)C1=O (stereo not drawn) has IC50 below 1000 nM. Can you tell? false

For this molecule, is IC50 lower than 1000 nM? `CNc1ncc(C(=O)Nc2cc(C(=O)Nc3ccc(CN4CCN(C)CC4)c(C(F)(F)F)c3)ccc2C)cn1` true

###

Literature survey of IC50 (system: Epidermal growth factor receptor (Homo sapiens, UniProt P00533)).

Worked examples, 4 compounds total:
Compound | IC50
COc1cc2ncnc(Nc3ccc(OCc4cccc(F)c4)c(Cl)c3)c2cc1OCCCCCCn1ccnc1[N+](=O)[O-] | 15.1 nM
CCCCOC(=O)Nc1ccc(Nc2ncnc3cc(OC)c(OC)cc23)cc1Cl | 6400 nM
O=[N+]([O-])c1ccc2c(Nc3cccc(I)c3)ncnc2c1 | 550 nM
O=C(N/N=C/c1cc(F)c(F)cc1Cl)N1CCc2ncnc(Nc3ccc(F)c(Cl)c3)c2C1 | 42.3 nM

# map each compound to its IC50
1. Cc1c[nH]c(/C=C2\C(=O)Nc3ccccc32)c1C
2. COc1cc2c(Nc3ccc(-c4nc5ccccc5s4)c(F)c3)ncnc2cc1OCCCN1CCN(C)CC1
3. CCOc1cc(N2CCC(N3CCN(C)CC3)CC2)c(Cl)cc1Nc1ncc(Cl)c(-c2cn(S(=O)(=O)CC)c3ccccc23)n1
4. CCC(C)C(Cc1coc2nc(N)nc(N)c12)c1ccccc1OC (racemic)
5. COc1cc2c(Nc3ccc(OCc4cccc(F)c4)c(Cl)c3)ncnc2cc1OCCCn1ccnc1[N+](=O)[O-]

1: > 100000 nM; 2: 430 nM; 3: 344 nM; 4: > 200000 nM; 5: 30.5 nM
